system: A549 cells; assay: MTT assay in A549 cells; format: cell-based, human; conditions: Homo sapiens, 120 h, 5 days incubation, 3 μM to 0.15 nM
pIC50: −log10 of the molar value.
observation type: pIC50

OCCn1nnc(CCCCc2ccc(OCc3coc(C=Cc4ccc(OC(F)(F)F)cc4)n3)cc2)n1 : 6.70 to 8.30
OCCn1nnnc1CCCCc1ccc(OCc2coc(C=Cc3ccc(OC(F)(F)F)cc3)n2)cc1 : 6.00 to 6.70
Cn1nnc(CCCCc2ccc(OCc3coc(/C=C/c4ccc(OC(F)(F)F)cc4)n3)cc2)n1 : 6.70 to 8.30
FC(F)(F)Oc1ccc(/C=C/c2nc(COc3ccc(CCCCc4nn[nH]n4)cc3)co2)cc1 : 6.00 to 6.70
Cn1nnnc1CCCCc1ccc(OCc2coc(/C=C/c3ccc(OC(F)(F)F)cc3)n2)cc1 : 7.77

Ask: Provide the documented pIC50 with A549 cells as the system for `FC(F)(F)Oc1ccc(/C=C/c2nc(COc3ccc(CCCCc4c[nH]nn4)cc3)co2)cc1`
Result: 6.00 to 6.70

Ask: Lab note: need pIC50 for `Cn1cc(CCCCc2ccc(OCc3coc(/C=C/c4ccc(OC(F)(F)F)cc4)n3)cc2)nn1` on A549 cells, anyone have it?
Result: 6.70 to 8.30

Ask: Lookup: pIC50 / A549 cells / `Cn1ncc(CCCCc2ccc(OCc3coc(/C=C/c4ccc(OC(F)(F)F)cc4)n3)cc2)n1`
Result: 6.70 to 8.30
